B1: glmS ribozyme (parent)
chain: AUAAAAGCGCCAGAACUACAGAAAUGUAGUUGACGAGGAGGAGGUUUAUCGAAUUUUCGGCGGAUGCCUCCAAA

variants of: B1; experiment: self-cleavage kobs at 640 uM GlcN6P; higher = faster cleavage; RNA array; settings: with glucosamine-6-phosphate
Fewer inactive variants are shown than the library holds.
Parameter self-cleavage kobs at 640 uM GlcN6P: see the listing below.
RESULT_TYPE: self-cleavage kobs at 640 uM GlcN6P (s⁻¹)

1) C34U U54A U69G | 0.000598
2) A53U C70G | 0.000133
3) C16A G63U C67U | 0.000112
4) U54G U69A | 0.000146
5) C11U A14C A39G | 0.000103
6) C16U A53G U54C | 0.00193
7) A14U U47C | 0.000138
8) C71U | 0.00716
9) G29U U55G | 0.000282
10) A15G G29A | 0.00108
11) A15U U30G | 0.00977
12) G29U G40A C70U | 3.68e-05
13) U49A C50A C70G | 5.26e-05
14) G13U U55G | 0.000195
15) C16G G66U | 3.85e-05
16) A52G G66U | 2.89e-05
17) G21U U30A | 0.00112
18) A28G C70A | 6.33e-05
19) A52G C70A | 5.8e-05
20) A39C U46C U56C | 6.45e-05
21) U55A C67U | 0.00589
22) C16U A39U A42C | 8.5e-05
23) A14C G37A | 8.51e-05
24) A14C U69G | 5.28e-05
